# testName: in vitro
# studyConditions: endothelial cells
property: viability at 72 h, 8 ng/ml (%)
Use % as the unit, but write only the number.

Value of measured viability at 72 h, 8 ng/ml for the entry CC(=O)O[C@H]1C(=O)[C@@]2(C)[C@H]([C@H](OC(=O)c3ccccc3)[C@]3(O)C[C@H](OC(=O)[C@H](O)[C@@H](NC(=O)c4ccccc4)c4ccccc4)C(C)=C1C3(C)C)[C@]1(OC(C)=O)CO[C@@H]1C[C@@H]2O : 38.6

* * *

# testName: in vitro
# studyConditions: endothelial cells
property: viability at 72 h, 0.1 ng/ml
Answer with the value and then the unit.

Record CC(=O)O[C@H]1C(=O)[C@@]2(C)[C@H]([C@H](OC(=O)c3ccccc3)[C@]3(O)C[C@H](OC(=O)[C@H](O)[C@@H](NC(=O)c4ccccc4)c4ccccc4)C(C)=C1C3(C)C)[C@]1(OC(C)=O)CO[C@@H]1C[C@@H]2O , field viability at 72 h, 0.1 ng/ml: 126%

* * *

# testName: in vitro
# studyConditions: endothelial cells
property: viability at 72 h, 2 ng/ml (%)
Expressed in %, but write only the number.

Reported viability at 72 h, 2 ng/ml of CC(=O)O[C@H]1C(=O)[C@@]2(C)[C@H]([C@H](OC(=O)c3ccccc3)[C@]3(O)C[C@H](OC(=O)[C@H](O)[C@@H](NC(=O)c4ccccc4)c4ccccc4)C(C)=C1C3(C)C)[C@]1(OC(C)=O)CO[C@@H]1C[C@@H]2O : 90

From: patent US20070282011A1
